The measurements presented in this section are drawn from the supplement of paper PMC11208160.

Experiment: recombinant UMI read abundance after kanamycin selection (control-corrected) (log10(CPM+1)); higher = more efficient recombination; extreme values may be limits of the assay; sequences stand for … in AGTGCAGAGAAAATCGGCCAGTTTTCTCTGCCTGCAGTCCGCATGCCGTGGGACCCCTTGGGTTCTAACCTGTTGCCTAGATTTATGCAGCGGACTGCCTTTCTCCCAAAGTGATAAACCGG…AGGTTGGTTTCACT; site = the 11-nt donor;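 also: IS621 bridge recombinase in Escherichia coli cells against a fixed T5 target plasmid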
In this section we review reported recombinant UMI read abundance (log10) values for a set of sequences.
Format: numeric value only, no unit, no commentary.

sequence-code: CGGGAGTCATGGACCGGTTTTCCCGGTAATCCGTATTTGAC (site CGGGAGTCTGC)
observed: 1.66

sequence-code: CGATAAACATGGACCGGTTTTCCCGGTAATCCGTATTTGCG (site CGATAAACTCG)
observed: 2.63

sequence-code: GTGTTGCCATGGACCGGTTTTCCCGGTAATCCGTATTTGGC (site GTGTTGCCTGC)
observed: 0

sequence-code: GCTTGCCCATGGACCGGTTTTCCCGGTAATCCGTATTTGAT (site GTTTGCCCTAT)
observed: 0.00461

sequence-code: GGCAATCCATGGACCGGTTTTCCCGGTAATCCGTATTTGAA (site CGCAATCCTTT)
observed: 0

sequence-code: TCTAATTCATGGACCGGTTTTCCCGGTAATCCGTATTTGCC (site TCCAATTCTGG)
observed: 0

Consider the additional sequence presented here.
Give the reported value of recombinant UMI read abundance (log10) for this record: TGTACAGCATGGACCGGTTTTCCCGGTAATCCGTATTTGAC (site TGTACACCTGT)
0
